Tested on: SW-620 colon
Experimental Protocol: NCI tumour cell line growth inhibition, 48 h
Assay Metric: TGI

1. Nc1cccc(CCN2CCN(CCCc3ccccc3)CC2)c1 ... > 100 µM
2. CCOCc1cc(=O)c2cc3c(cc2o1)OC(C)(C)CC3 ... > 100 µM
3. Cc1cc(S(=O)(=O)NC2=NCC(C)NN2)c(S)cc1Cl (stereo unspecified) ... > 100 µM

Batch lookup, TGI per entry.
1. NC(Cc1ccc(O)c(O)c1)P(=O)(O)O (stereo unspecified)
2. CC(C)NC(=O)OCc1c(COC(=O)NC(C)C)c(-c2ccc[n+](COC(=O)C(C)C)c2)n2c1CCC2

1. 43.2 µM
2. > 100 µM

Batch lookup, TGI per entry.
1. COc1ccc(C2C(C#N)=C(O)NC(O)=C2C#N)cc1OC
2. Cc1n[nH]c(=O)n1/N=C/c1ccc([N+](=O)[O-])cc1
3. O=C1OC(c2ccccc2)=N/C1=C\c1ccc(Cl)cc1

1: > 100 µM; 2: > 100 µM; 3: > 100 µM
